MEASUREMENT DESCRIPTION: Molar extinction coefficient in acetonitrile
Type: physicochemical
Experimental: The curing performance of individual products prepared above was assessed using real time FT-IR measurement. […] The polymerization rate and final reactive group conversion were determined by monitoring the change of the relevant infrared band near 900 cm^−1 corresponding to an epoxide ring during irradiation. The molar extinction coefficients for the photoinitiator products (ε, expressed in M^−1 cm^−1) were determined in acetonitrile at 10^-3 M or 10^-5 M concentration.
# ε at 385 nm listing for each entry below
REPORTED METRIC: ε at 385 nm (M⁻¹ cm⁻¹)

COMPOUND	REPORTED METRIC	VALUE UNIT	DATA VALUE
CCc1cc(CC)c2sc3ccc([S+](c4ccc(C)cc4)c4ccc(C(=O)c5ccccc5)cc4)cc3c(=O)c2c1 (centres unmarked)	ε at 385 nm	M⁻¹ cm⁻¹	13649
CC(C)c1ccc2sc3ccc(-[s+]4c5ccccc5c(=O)c5cc(C(C)C)ccc54)cc3c(=O)c2c1 (centres unmarked)	ε at 385 nm	M⁻¹ cm⁻¹	23514
COc1ccc(-c2ccc(-[s+]3c4ccccc4c(=O)c4cc(C(C)C)ccc43)cc2)cc1 (centres unmarked)	ε at 385 nm	M⁻¹ cm⁻¹	1622
CCc1cc(CC)c2sc3ccc(-[s+]4c5ccccc5c(=O)c5cc(CC)cc(CC)c54)cc3c(=O)c2c1 (centres unmarked)	ε at 385 nm	M⁻¹ cm⁻¹	15504
CCCOc1ccc(Cl)c2c1[SH](c1ccc(Oc3ccccc3)cc1)c1ccccc1C2=O (centres unmarked)	ε at 385 nm	M⁻¹ cm⁻¹	6830

* * *

MEASUREMENT DESCRIPTION: Real time FT-IR curing performance in UViCure S105 at 365 and 385 nm
CONDITION PARAMETERS: LED @385 nm (160 W/cm^2), UViCure S105, 20 μm thickness, under air
// reported Polymerization rate Rp/[M0]*100 for each item listed
REPORTED METRIC: Polymerization rate Rp/[M0]*100 (s⁻¹)

COMPOUND	REPORTED METRIC	VALUE UNIT	DATA VALUE
CCCOc1ccc(Cl)c2c(=O)c3cc(-[s+]4c5ccccc5c(=O)c5c(Cl)ccc(OCCC)c54)ccc3sc12 (stereo not drawn)	Polymerization rate Rp/[M0]*100	s⁻¹	5.90
CCc1cc(CC)c2sc3ccc([S+](c4ccc(C)cc4)c4ccc(C(=O)c5ccccc5)cc4)cc3c(=O)c2c1 (stereo not drawn)	Polymerization rate Rp/[M0]*100	s⁻¹	4.80
CCCOc1ccc(Cl)c2c(=O)c3cc([S+](c4ccc(C)cc4)c4ccc(C(=O)c5ccccc5)cc4)ccc3sc12 (stereo not drawn)	Polymerization rate Rp/[M0]*100	s⁻¹	2.46
CC(C)c1ccc2sc3ccc(-[s+]4c5ccccc5c(=O)c5cc(C(C)C)ccc54)cc3c(=O)c2c1 (stereo not drawn)	Polymerization rate Rp/[M0]*100	s⁻¹	8.89
CCCOc1ccc(Cl)c2c1[SH](c1ccc(Oc3ccccc3)cc1)c1ccccc1C2=O (stereo not drawn)	Polymerization rate Rp/[M0]*100	s⁻¹	3.71
CCc1cc(CC)c2sc3ccc(-[s+]4c5ccccc5c(=O)c5cc(CC)cc(CC)c54)cc3c(=O)c2c1 (stereo not drawn)	Polymerization rate Rp/[M0]*100	s⁻¹	5.89
COc1ccccc1-c1cc(-[s+]2c3ccccc3c(=O)c3cc(C(C)C)ccc32)ccc1OC (stereo not drawn)	Polymerization rate Rp/[M0]*100	s⁻¹	5.78
COc1ccc(-c2ccc(-[s+]3c4ccccc4c(=O)c4cc(C(C)C)ccc43)cc2)cc1 (stereo not drawn)	Polymerization rate Rp/[M0]*100	s⁻¹	3.08
CC(C)c1ccc2c(c1)c(=O)c1ccccc1[s+]2-c1ccc(Oc2ccccc2)cc1 (stereo not drawn)	Polymerization rate Rp/[M0]*100	s⁻¹	2.74
Cc1ccc([S+](c2ccc(C(=O)c3ccccc3)cc2)c2ccc3sc4ccc(C(C)C)cc4c(=O)c3c2)cc1 (stereo not drawn)	Polymerization rate Rp/[M0]*100	s⁻¹	5.96
COC(=O)COc1ccc2sc3ccc(-[s+]4c5ccccc5c(=O)c5cc(OCC(=O)OC)ccc54)cc3c(=O)c2c1 (stereo not drawn)	Polymerization rate Rp/[M0]*100	s⁻¹	2.01
CCCOc1ccc(Cl)c2c(=O)c3ccccc3[s+](-c3ccc(-c4ccc(OC)cc4)cc3)c12 (stereo not drawn)	Polymerization rate Rp/[M0]*100	s⁻¹	4.86
